Values compiled from the supplement of paper PMC8728848.

Molecular target: Gal(b1-4)GlcNAc(b1-3)Gal(b1-4)[Fuc(a1-3)]GlcNAc(b1-3)Gal(b1-4)[Fuc(a1-3)]GlcNAc
Test: glycan array binding signal (z-score within array); higher = stronger binding
Settings: glycan notation: IUPAC condensed, linker removed
Only a selection was taken, and the strongest signals are over-represented in it overall.
MEASURE NAME: glycan array binding signal (z-score)

* CVNH0 (Neurospora crassa), Q7S6U4 (protein) GSHIGPYMSFHVTAEDARIEVRDNRTILFARLRREDGEWNDASYELDQIIGNNDGHFQWGGQNFTETAEDIRFHPKEGAAEQPILRARLRDCNGEFHDRDVNLTEIVENVNGEFQAKF | -0.186
* SEX4 (Arabidopsis thaliana), Q944A8 (protein) TQAMGAVLTYRHELGMNYNFIRPDLIVGSCLQTPEDVDKLRKIGVKTIFCLQQDPDLEYFGVDISSIQAYAKKYSDIQHIRCEIRDFDAFDLRMRLPAVVGTLYKAVKRNGGVTYVHCTAGMGRAPAVALTYMFWVQGYKLMEAHKLLMSKRSCFPKLDAIRNATIDILTGLKRKTVTLTLKDKGFSRVEISGLDIGWGQRIPLTLGKGTGFWILKRELPEGQFEYKYIIDGEWTHNEAEPFIGPNKDGHTNNYAKVVDDPTSVDGTTRERLSSEDPELLEEERSKLIQFLETCSEAEV | -0.35
* CLL-1 (Homo sapiens) (protein) MWIDFFTYSSMSEEVTYADLQFQNSSEMEKIPEIGKFGEKAPPAPSHVWRPAALFLTLLCLLLLIGLGVLASMFHVTLKIEMKKMNKLQNISEELQRNISLQLMSNMNISNKIRNLSTTLQTIATKLCRELYSKEQEHKCKPCPRRWIWHKDSCYFLSDDVQTWQESKMACAAQNASLLKINNKNALEFIKSQSRSYDYWLGLSPEEDSTRGMRVDNIINSSAWVIRNAPDLNNMYCGYINRLYVQYYHCTYKKRMICEKMANPVQLGSTYFREA | -0.107
* chitinase 3-like protein 2 (Homo sapiens) (protein) YKLVCYFTQWSQDRQEPGKFTPENIDPFLCSHLIYSFASIENNKVIIKDKSEVMLYQTINSLKTKNPKLKILLSIGGYLFGSKGFHPMVDSSTSRLEFINSIILFLRNHNFDGLDVSWIYPDQKENTHFTVLIHELAEAFQKDFTKSTKERLLLTAGVSAGRQMIDNSYQVEKLAKDLDFINLLSFDFHGSWEKPLITGHNSPLSKGWQDRGPSSYYNVEYAVGYWIHKGMPSEKVVMGIPTYGHSFTLASAETTVGAPASGPGAAGPITESSGFLAYYEICQFLKGAKITRLQDQQVPYAVKGNQWVGYDDVKSMETKVQFLKNLNLGGAMIWSIDMDDFTGKSCNQGPYPLVQAVKRSLGSL | -0.183
